- Tested on: NCI-H23 lung
- Test description: NCI tumour cell line growth inhibition, 48 h; in the data active means GI50 below about 0.43 µM; inactive means the rest
Lab note: assign the record to one of 1 for active, 0 for inactive

Worked examples follow.
input: Could you check what this test reported for C=C1c2c(C)nn(-c3ccc(C#CCOC4OC(CO)C(O)C(O)C4O)cc3)c2N(C)C23C[C@H]1C1(C)c4c(C)nn(-c5ccc(C#CCOC6OC(CO)C(O)C(O)C6O)cc5)c4N(C)C(C)(C[C@H]12)C3 (some centres not stated) ?
output: 0

input: Could you check what this test reported for "CC/C=C\C[C@H]1CC=C2C(=O)C=C[C@@H]2CC=CCCCC(=O)O[C@@H](CCCCC)CC=C2C(=O)C=C[C@@H]2CC=CCCCC(=O)O[C@@H](CCCCC)CC=C2C(=O)C=C[C@@H]2CC=CCCCC(=O)O[C@@H](CCCCC)CC=C2C(=O)C=C[C@@H]2CC=CCCCC(=O)O1" ?
output: 0

input: Could you check what this test reported for "N/N=C\c1c2ccccc2c(=O)n2c1oc1ccccc12" ?
output: 0

More entries:
input: Could you check what this test reported for "CCOC(=O)[CH-]C(=O)C12CC3CC(CC(C3)C1)C2.CCOC(=O)[CH-]C(=O)C12CC3CC(CC(C3)C1)C2.CC[O-].CC[O-].[Ti+4]" ?
output: 0

input: Could you check what this test reported for CCCC(C)c1ccc(OCCCCCCN2CCNCC2)cc1 (configuration not stated) ?
output: 0

input: Could you check what this test reported for COc1ccc2c(c1)OC1=C(C(=O)OC1)C2c1cc(OC)c2c(c1)OCCO2 (configuration not stated) ?
output: 1

input: Could you check what this test reported for Cc1ccc(C2=C(c3ccc(C)cc3)C3(c4ccc(C)cc4)C4C(=O)OC(=O)C4C2(c2ccc(C)cc2)S3=O)cc1 (configuration not stated) ?
output: 0

---

- Tested on: MALME-3M melanoma
- Test description: NCI tumour cell line growth inhibition, 48 h
The entries below are paired with their reported TGI.

// worked examples, TGI included
input: # input compound: "CCOc1cccc(/C=N/NC(=O)c2cccc(Nc3ccnc(C(F)(F)F)c3)c2)c1O" ; wanted: its TGI
output: 18.9 µM

input: # input compound: "CC1(C)OCN(c2ccc(N3CCOCC3)cc2)Cn2c1nc1ccccc12" ; wanted: its TGI
output: > 100 µM

input: # input compound: CCC1C[N+]23CCc4c([nH]c5ccccc45)C2CC1CC3 (centres undefined) ; wanted: its TGI
output: 97.4 µM

input: # input compound: CCCC(C)c1ccc(OCCCCCCN2CCNCC2)cc1 (centres undefined) ; wanted: its TGI
output: 3.75 µM

input: # input compound: "COc1cc(Nc2ncccc2C(=O)Nc2nc3ccc(F)cc3s2)cc(OC)c1OC" ; wanted: its TGI
output: > 100 µM

input: # input compound: "C[C@]12CCc3sc(Nc4ccc(OC(F)(F)F)cc4)nc3C1=CC[C@@H]1[C@@H]2CC[C@]2(C)C(=O)CC[C@@H]12" ; wanted: its TGI
output: 16.8 µM

input: # input compound: COC(=O)[C@@H]1C=C[C@H](OC2OC(COC(C)=O)C(OC(C)=O)C(OC(C)=O)C2OC(C)=O)n2c(=O)n(-c3ccccc3)c(=O)n21 (some centres undefined) ; wanted: its TGI
output: 4.07 µM

input: # input compound: "O=C(O)CCCc1ccc2ccc3ccccc3c2c1" ; wanted: its TGI
output: > 100 µM

More entries:
input: # input compound: "O=c1[nH]c2cc(C(F)(F)F)ccc2nc1C(F)(F)F" ; wanted: its TGI
output: > 100 µM

input: # input compound: "COc1cc2c(cc1OCCCCCCCCCCN1C(=O)c3cccc4cccc(c34)C1=O)N=C[C@@H]1CCCN1C2=O" ; wanted: its TGI
output: 34 µM

input: # input compound: CCCC1(CC(=O)O)OCCc2c1[nH]c1ccccc21 (centres undefined) ; wanted: its TGI
output: > 100 µM

input: # input compound: COC1(OC)N=C(N)C2(C#N)C(c3ccccc3)NC3=C(CCC3)C12C#N (centres undefined) ; wanted: its TGI
output: > 100 µM

input: # input compound: "CCN1C(=O)/C(=C/c2c(Cl)[nH]c3cc(C)c(OC)cc23)c2ccccc21" ; wanted: its TGI
output: 70.6 µM

input: # input compound: "CC1(C)N/C(=C\[N+](=O)[O-])C(C)(C)N1O" ; wanted: its TGI
output: > 10 µM

---

- Test system: M14 melanoma
- Test description: NCI tumour cell line growth inhibition, 48 h
The entries below are paired with their reported TGI.

input: # input compound: "NC(N)=NS(=O)(=O)c1ccc(NNc2c3ccccc3nc3ccccc23)cc1" ; wanted: its TGI
output: 26.8 µM

input: # input compound: "COc1cc2c(cc1O)c(O)cc1c3cc(OC)c(OC)cc3c[n+](C)c21" ; wanted: its TGI
output: > 100 µM

input: # input compound: COc1ccc2c(c1)OC1=C(C(=O)OC1)C2c1cc(OC)c2c(c1)OCCO2 (stereo not given) ; wanted: its TGI
output: > 100 µM

input: # input compound: Cc1cn(C2CC(OC(=O)c3ccc(Cl)cc3)C(COC(=O)c3ccc(Cl)cc3)O2)c(=O)[nH]c1=O (stereo not given) ; wanted: its TGI
output: > 100 µM

Moving on to another compound below.
input: # input compound: COC1(OC)N=C(N)C2(C#N)C(c3ccccc3)NC3=C(CCC3)C12C#N (stereo not given) ; wanted: its TGI
output: > 100 µM

---

- Test system: OVCAR-3 ovarian
- Test description: NCI tumour cell line growth inhibition, 48 h
The entries below are paired with their reported TGI.
// return numeric value only (unit: µM, not printed)

// worked examples, TGI included
input: # input molecule: Cc1cc(N(CC(C)Br)CC(C)Br)ccc1N=Nc1ccccc1C(=O)O (configuration not stated) ; wanted: its TGI
output: 47.2

input: # input molecule: "O=C1C=C(Nc2ccccc2C(=O)CC(=O)C(=O)Nc2cccc([N+](=O)[O-])c2)c2ccccc2C1=O" ; wanted: its TGI
output: 55.2

input: # input molecule: "O=C1/C(=C\c2ccc([N+](=O)[O-])cc2)N(S(=O)(=O)c2ccccc2)c2ncccc21" ; wanted: its TGI
output: 31.3

input: # input molecule: "COc1cccc2c1C(=N)c1c(O)c3c(c(O)c1C2=O)C[C@@](O)(C(C)=O)C[C@@H]3O[C@H]1C[C@H](N)[C@H](O)[C@H](C)O1" ; wanted: its TGI
output: 7.11

input: # input molecule: "O=c1[nH]c2ccccc2cc1-c1nc2ccc(Cl)cc2[nH]1" ; wanted: its TGI
output: 7.25

input: # input molecule: "Clc1ccc(CCN(CCc2ccc(Cl)c(Cl)c2)CCN2CCCC2)cc1Cl" ; wanted: its TGI
output: 3.2

input: # input molecule: O=C1C=CC(=O)C2C1C1(Cl)C(Cl)=C(Cl)C2(Cl)C1(Cl)Cl (configuration not stated) ; wanted: its TGI
output: 5.08

Moving on to another molecule below.
input: # input molecule: "Cc1ccc2c(ccc(/C=C/c3ccc(O)c4ncccc34)[n+]2C)c1" ; wanted: its TGI
output: 10.4

---

- Tested on: 786-0 renal
- Test description: NCI tumour cell line growth inhibition, 48 h
Measured endpoint: TGI (µM)
// return numeric value only (unit: µM, not printed)

input: # input compound: "CN(C)CCC(=O)N1C/C(=C\c2ccc(Cl)c(Cl)c2)C(=O)/C(=C/c2ccc(Cl)c(Cl)c2)C1" ; wanted: its TGI
output: 0.323

Moving on to another compound below.
input: # input compound: "Nc1n[nH]c2cccc(C#Cc3cccc(NC(=O)c4cccc(C(F)(F)F)c4)c3)c12" ; wanted: its TGI
output: 8.74

---

- Test system: A549 NSCLC
- Test description: NCI tumour cell line growth inhibition, 48 h
The entries below are paired with their reported TGI.

input: # input compound: O=C(O)c1c2c(cc3c1CC(Cc1ccccc1)C3=O)CCC2 (centres undefined) ; wanted: its TGI
output: 38 µM

input: # input compound: "CCCCC1(NN=C2CCCCC2)C(=O)N(c2ccccc2)N(c2ccccc2)C1=O" ; wanted: its TGI
output: > 100 µM

input: # input compound: "COc1cccc2c1C(=N)c1c(O)c3c(c(O)c1C2=O)C[C@@](O)(C(C)=O)C[C@@H]3O[C@H]1C[C@H](N)[C@H](O)[C@H](C)O1" ; wanted: its TGI
output: 1.58 µM

input: # input compound: "O=C(Oc1ccc[nH]c1=O)c1cc([N+](=O)[O-])cc([N+](=O)[O-])c1" ; wanted: its TGI
output: > 100 µM

input: # input compound: CC(=O)C1C(c2ccccc2)C2(C)OC(=O)C(C#N)C12C (centres undefined) ; wanted: its TGI
output: > 100 µM

More entries:
input: # input compound: "CNc1ncccc1Nc1cc(=O)n2c3cccnc3n(C)c2c1" ; wanted: its TGI
output: > 100 µM

input: # input compound: "CC1(C)N/C(=C\[N+](=O)[O-])C(C)(C)N1O" ; wanted: its TGI
output: > 10 µM

input: # input compound: "COc1cc2c(cc1O)c(O)cc1c3cc(OC)c(OC)cc3c[n+](C)c21" ; wanted: its TGI
output: > 100 µM

input: # input compound: "O=c1[nH]c2ccccc2cc1-c1nc2ccc(Cl)cc2[nH]1" ; wanted: its TGI
output: > 100 µM
